- Target of assay: T1, recombinant human IL-17A (human, UniProt Q16552 24-155)
- T1 construct: Bought recombinant protein (Peprotech AF-200-17); also called Peprotech AF-200-17
- T1 sequence (Q16552 24-155): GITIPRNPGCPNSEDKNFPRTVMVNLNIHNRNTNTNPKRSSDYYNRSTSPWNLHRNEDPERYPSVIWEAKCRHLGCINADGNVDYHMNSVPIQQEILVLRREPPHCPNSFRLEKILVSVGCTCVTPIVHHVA
- Experiment summary: SPR (BIAcore T200), IL-17A coupled to CM5 chip, single-cycle kinetics;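 further: VH domain analytes, kinetic constants obtained by fitting blank-corrected sensorgrams to a 1:1 binding model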
Binary label based on kon with cut-off 700000 M⁻¹ s⁻¹: below gives t, not below gives f.

Examples with answers:
* Clone 1.13 (VHH, Human single VH domain) VHH: EVQLVESGGGLVQPGGSLRLSCAASGFTFSSYGMYWVRQAPGKGLEWVASIEQDGSEKYYVDSVKGRFTISRDNAKNSLYLQMNSLRAEDTAVYYCAKGEILPLYFDYWGQGTLVTVSS | t
* VH 1.7.1 (clone 1.7 expressed from phagemid vector: with linker residues and His tag) (VHH, Human single VH domain) VHH: QVQLVESGGGLVQPGGSLRLSCAASGFTFSSYGMYWVRQAPGKGLEWVAKIEQDGSEEYYVDSVKGRFTISRDNAKKSLYLQMNSLRAEDTAVYYCAKGEILPLYFDYWGQGTLVTVSS | f
* Clone 1.15 (VHH, Human single VH domain) VHH: EVQLVESGGGLVQPGGSLRLSCAASGFTFSSYSMYWVRQAPGKGLEWVAEIRQDGSEQYYVDSVKGRFTISRDNAKNSLYLQMNSLRAEDTAVYYCAKGEILPLYFDYWGQGTLVTVSS | f
* VH 1.16.1 (clone 1.16 expressed from phagemid vector: with linker residues and His tag) (VHH, Human single VH domain) VHH: EVQLVESGGGLVQPGGSLRLSCAASGFTFSSYSMYWVRQAPGKGLEWVAEIKQDGSEQYYVDSVKGRFTISRDNAKNSLYLQMNGLRAEDTAVYYCAKGEILPLYFDYWGQGTLVTVSS | f
* VH 1.20.1 (clone 1.20 expressed from phagemid vector: with linker residues and His tag) (VHH, Human single VH domain) VHH: EVQLVESGGGLVQPGGSLRLSCAASGFTFSSYGMYWVRQAPGKGLEWVAKIEQDGSEEYYADSVKGRFTISRDNAKKSLYLQMNSLRAEDTAVYYCAKGEILPLYFDYWGQGTLVTVSS | f

Here is another binder to look at.
Query: Lab note: kon threshold 700000 M⁻¹ s⁻¹. Does this binder come in strictly under it? Clone 1.2 (VHH) VHH: EVQLVESGGGLVQPGGSLRLSCAASGFTFSSYSMYWVRQAPGKGLEWVAEIKQDGSVQYYVSDVKGRFTISRDNAKNSLYLQMNSLRAEDTAVYYCAKGEILPLYFDYWGQGTLVTVSS
Result: f
